STUDY TARGET: Vasopressin receptor (Rattus norvegicus) (UniProt P48974+P30560+Q00788)
EXPERIMENT DESCRIPTION: Antiantidiuretic potency in terms of measuring changes in urine flow in water-loaded rats under ethanol anesthesia
Type: functional
MEASURE: ED (nM/kg)

The examples below pair each entry with its known result.
CCOc1ccc(C[C@H]2NC(=O)CC3(CCCCC3)SSC[C@H](C(=O)N3CCCC3C(=O)NCCNC(=O)[C@@H](N)CCCN)NC(=O)[C@@H](CC(N)=O)NC(=O)[C@H](C(C)C)NC(=O)[C@@H](Cc3ccccc3)NC2=O)cc1 (some centres not stated) | 0.82
CCOc1ccc(C[C@H]2NC(=O)CC3(CCCCC3)SSC[C@H](C(=O)N3CCCC3C(=O)NCCNC(=O)[C@@H](N)CCCCN)NC(=O)[C@@H](CC(N)=O)NC(=O)[C@H](C(C)C)NC(=O)[C@@H](Cc3ccccc3)NC2=O)cc1 (some centres not stated) | 1.2
CC[C@H](C)[C@@H]1NC(=O)[C@H](Cc2ccccc2)NC(=O)[C@@H](Cc2ccccc2)NC(=O)CC2(CCCCC2)SSC[C@@H](C(=O)N2CCC[C@H]2C(=O)N[C@@H](CCCN=C(N)N)C(=O)NCC(=O)NCCN)NC(=O)[C@H](CC(N)=O)NC1=O | 0.57

1: CC[C@H](C)[C@H]1NC(=O)CC2(CCCCC2)SSC[C@H](C(=O)NCCNC(=O)C(N)CCCN=C(N)N)NC(=O)[C@@H](CC(N)=O)NC(=O)[C@H](C(C)C)NC(=O)[C@@H](Cc2ccccc2)NC1=O (some centres not stated)
2: CCOc1ccc(C[C@H]2NC(=O)CC3(CCCCC3)SSC[C@H](C(=O)N[C@H](CCCN=C(N)N)C(=O)NCC(N)=O)NC(=O)[C@@H](CC(N)=O)NC(=O)[C@H](C(C)C)NC(=O)[C@@H](Cc3ccccc3)NC2=O)cc1
3: CCOc1ccc(C[C@@H]2NC(=O)CC3(CCCCC3)SSC[C@H](C(=O)NCCNC(=O)C(N)CCCN=C(N)N)NC(=O)[C@@H](CC(N)=O)NC(=O)[C@H](C(C)C)NC(=O)[C@@H](Cc3ccccc3)NC2=O)cc1 (some centres not stated)
4: CCOc1ccc(C[C@H]2NC(=O)CC3(CCCCC3)SSC[C@H](C(=O)NCCNC(=O)[C@H](N)CCCN)NC(=O)[C@@H](CC(N)=O)NC(=O)[C@H](C(C)C)NC(=O)[C@@H](Cc3ccccc3)NC2=O)cc1
Ask: Arrange the 4 compounds from largest to smallest ED. List labels; respect the requested ordering.
Result: 1, 3, 4, 2
(1: 100 nM/kg, 3: 27 nM/kg, 4: 1.9 nM/kg, 2: 1.1 nM/kg)

I: CCOc1ccc(C[C@H]2NC(=O)CC3(CCCCC3)SSC[C@H](C(=O)NCCNC(=O)[C@H](N)CCCCN)NC(=O)[C@@H](CC(N)=O)NC(=O)[C@H](C(C)C)NC(=O)[C@@H](Cc3ccccc3)NC2=O)cc1
II: CCOc1ccc(C[C@H]2NC(=O)CC3(CCCCC3)SSC[C@H](C(=O)NCCNC(=O)CN)NC(=O)[C@@H](CC(N)=O)NC(=O)[C@H](C(C)C)NC(=O)[C@@H](Cc3ccccc3)NC2=O)cc1
III: CCOc1ccc(C[C@H]2NC(=O)CC3(CCCCC3)SSC[C@H](C(=O)N3CCCC3C(=O)NCCNC(=O)[C@@H](N)CCCN=C(N)N)NC(=O)[C@@H](CC(N)=O)NC(=O)[C@H](C(C)C)NC(=O)[C@@H](Cc3ccccc3)NC2=O)cc1 (some centres not stated)
IV: CCOc1ccc(C[C@H]2NC(=O)CC3(CCCCC3)SSC[C@H](C(=O)NCCNC(=O)[C@@H](N)CCCN)NC(=O)[C@@H](CC(N)=O)NC(=O)[C@H](C(C)C)NC(=O)[C@@H](Cc3ccccc3)NC2=O)cc1
Ask: Put these in order: smallest ED first, largest last. Give your ranking as a list of the labels in the requested order.
Result: III, I, IV, II
